Reported pKi values follow for various compounds
# test target: ROS1-G2032R (Homo sapiens, UniProt P08922, G2032R)
# Sequence (P08922 1945-2222 G2032R limits assumed): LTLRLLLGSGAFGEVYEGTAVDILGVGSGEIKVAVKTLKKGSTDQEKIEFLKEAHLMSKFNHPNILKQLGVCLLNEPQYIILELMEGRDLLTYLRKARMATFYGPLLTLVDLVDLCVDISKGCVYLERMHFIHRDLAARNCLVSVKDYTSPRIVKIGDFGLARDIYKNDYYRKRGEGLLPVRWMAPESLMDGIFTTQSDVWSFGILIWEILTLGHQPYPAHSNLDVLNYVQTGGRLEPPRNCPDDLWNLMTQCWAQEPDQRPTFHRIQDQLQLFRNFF
# test name: Biochemical kinase assay, ROS1-G2032R kinase domain
# run parameters: apparent inhibitory constant, Morrison equation; ATP 2 mM in substrate solution; read-out: ROS1-G2032R Ki^app
# Protocol: First, 250 nL of compound dissolved in DMSO (100-fold of the desired concentration) was dispensed into a 384-well plate. […] The plate was sealed and read by SpectraMax Paradigm at λ=485 nm every 2 minutes for 120 minutes at 30° C. Initial rates of reaction (v) were calculated from the change in fluorescence intensity over time during the initial, linear portion of the reaction. […]
pKi: −log10 of the molar value.
assay endpoint: pKi

1. CCn1ncc2c1-c1cnc(N)c(c1)O[C@H](C)c1cc(F)ccc1-c1cc(Cl)nn1C2 [Example 16] | > 7.30
2. C[C@H]1Oc2cc(cnc2N)-c2c(C3CCC3)noc2Cn2ncnc2-c2ccc(F)cc21 [Example 52] | > 7.30
3. CCc1noc2c1-c1cnc(N)c(c1)O[C@H](C)c1cc(F)ccc1-c1ccnn1C2 [Example 21] | > 7.30
4. CCc1nsc2c1-c1cnc(N)c(c1)O[C@H](C)c1cc(F)ccc1-c1ncnn1C2 [Example 44] | 6.30 to 7.30
5. C[C@H]1Oc2cc(cnc2N)-c2c(cnn2CC2CC2)Cc2nn(C)nc2-c2ccc(F)cc21 [Example 69] | > 7.30
6. Cc1nc2n(n1)Cc1cnn(CC3CC3)c1-c1cnc(N)c(c1)O[C@H](C)c1cc(F)ccc1-2 [Example 75] | > 7.30
